tgt: Recombinant (1-346) HPK1 (h) (Homo sapiens)
Construct: Recombinant (1-346) HPK1 (h) is incubated with 8 mM MOPS pH 7.0
protocol_notes: HPK1 Human STE Kinase Enzymatic Radiometric Assay
Type: biochemical
protocol_conditions: read-out: HPK1 IC50 nM Range*
Reported IC50 values for a set of compounds

Some solved entries appear below for comparison.
{"columns": ["compound", "tgt", "IC50"],
 "data": [
  ["CN(C)Cc1cc(-c2cc(-c3cc4c(cc3F)C(=O)NCC4)c(N)nc2F)ccc1N1CCN(CCCC(F)F)CC1 [I-447]", "Recombinant (1-346) HPK1 (h) (Homo sapiens)", "0.1 to 10 nM"],
  ["CCN1CCN(c2ccc(-c3cc(-c4ccc5c(c4)C(C)(C)CNC5=O)c(N)nc3F)cc2)CC1 [I-69]", "Recombinant (1-346) HPK1 (h) (Homo sapiens)", "0.1 to 10 nM"],
  ["CS(=N)(=O)c1ccc(-c2cc(-c3ccc4c(c3)CCNC4=O)c(N)nc2F)cc1 (stereo not shown) [I-86]", "Recombinant (1-346) HPK1 (h) (Homo sapiens)", "0.1 to 10 nM"],
  ["Nc1nc(F)c(-c2ccc(OC3CN(CC4CC4)C3)cc2)cc1-c1ccc2c(c1)CCNC2=O [I-321]", "Recombinant (1-346) HPK1 (h) (Homo sapiens)", "0.1 to 10 nM"],
  ["C[C@H]1CN(c2ccc(-c3cc(-c4ccc5c(c4)CCNC5=O)c(N)nc3F)cc2)C[C@H](C)N1C [I-97]", "Recombinant (1-346) HPK1 (h) (Homo sapiens)", "0.1 to 10 nM"],
  ["Nc1nc(F)c(-c2ccc(N3CCN(C4CCC4)CC3)cc2)cc1-c1ccc2c(=O)[nH]cc(F)c2c1 [I-546]", "Recombinant (1-346) HPK1 (h) (Homo sapiens)", "0.1 to 10 nM"],
  ["CCN1CCN(c2ccc(-c3cc(-c4ccc5c(c4)CC(C)(C)NC5=O)c(N)nc3F)cc2)CC1 [I-70, 2,2,2-trifluoroacetate]", "Recombinant (1-346) HPK1 (h) (Homo sapiens)", "11 to 100 nM"],
  ["Nc1nc(F)c(-c2ccc(OC3CCNCC3)c3c2OCO3)cc1-c1ccc2c(c1)CCNC2=O [I-145]", "Recombinant (1-346) HPK1 (h) (Homo sapiens)", "0.1 to 10 nM"],
  ["Cc1[nH]c(=O)c2cc(F)c(-c3cc(-c4ccc(N5CCN(C(C)C)CC5)cc4)c(F)nc3N)cc2c1F [I-572]", "Recombinant (1-346) HPK1 (h) (Homo sapiens)", "0.1 to 10 nM"],
  ["Nc1nc(F)c(-c2ccc([C@]34C[C@H]3CN(C3CCC3)C4)cc2)cc1-c1ccc2c(=O)[nH]cc(F)c2c1 [I-520]", "Recombinant (1-346) HPK1 (h) (Homo sapiens)", "0.1 to 10 nM"]
]}

Problem: Which value of IC50 has been reported for CC(=O)N1CCC(Oc2ccc(-c3cc(-c4ccc5c(c4)CCNC5=O)c(N)nc3F)cc2C(F)(F)F)CC1 [I-199] in the records?
Result: 11 to 100 nM

Problem: Need IC50 of CN(C)Cc1cc(-c2cc(-c3cc4c(cc3F)C(=O)NCC4)c(N)nc2F)ccc1OCCCC(F)F [I-525] , thanks.
Result: 11 to 100 nM

Problem: What value of measured IC50 is listed for Nc1nc(F)c(-c2ccc(C3CN(CC(F)(F)F)CCO3)cc2)cc1-c1ccc2c(c1)CCNC2=O (stereo not shown) [I-90] ?
Result: 11 to 100 nM

Problem: Record request: IC50 value, item CN1CCOC2(C1)CN(c1ccc(-c3cc(-c4cc5c(cc4F)C(=O)NCC5)c(N)nc3F)cc1)C2 [I-539]
Result: 0.1 to 10 nM

Problem: Look up IC50: CC(C)N1CCC(c2ccc(-c3cc(-c4cc(F)c5c(c4)CCNC5=O)c(N)nc3F)cc2)CC1 [I-302]
Result: 0.1 to 10 nM

Problem: For CN1CCc2c(cccc2-c2cc(-c3cc4c(cc3F)C(=O)NCC4)c(N)nc2F)C1 [I-464] , what is its reported IC50?
Result: > 1000 nM

###

Each entry below carries its reported IC50.
tgt: Recombinant (1-346) HPK1 (h) (Homo sapiens, UniProt Q92918)
Construct: Recombinant (1-346) HPK1 (h) is incubated with 8 mM MOPS pH 7.0
Sequence (Q92918 1-346): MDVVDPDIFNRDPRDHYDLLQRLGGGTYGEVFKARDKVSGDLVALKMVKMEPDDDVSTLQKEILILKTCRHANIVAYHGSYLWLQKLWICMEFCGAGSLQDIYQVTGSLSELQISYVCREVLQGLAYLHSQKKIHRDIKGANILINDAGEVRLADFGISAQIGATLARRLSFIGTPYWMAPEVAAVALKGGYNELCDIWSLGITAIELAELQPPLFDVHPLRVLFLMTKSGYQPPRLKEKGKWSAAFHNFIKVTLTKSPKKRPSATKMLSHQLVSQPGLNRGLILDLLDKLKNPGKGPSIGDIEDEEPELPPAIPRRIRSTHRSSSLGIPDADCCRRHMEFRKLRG
protocol_notes: HPK1 Human STE Kinase Enzymatic Radiometric Assay
Format: biochemical
protocol_conditions: read-out: HPK1 IC50 nM Range*

Below: 3 molecules and their reported IC50.
{"columns": ["molecule", "IC50"],
 "data": [
  ["CCN(C)C1CCN(c2ccc(-c3cc(-c4ccc5c(c4)CCNC5=O)c(N)nc3F)cc2)C1 (stereo not shown) [I-158]", "0.1 to 10 nM"],
  ["CC(C)N1CCC(Oc2ccc(-c3cc(-c4ccc5c(c4)CCNC5=O)c(N)nc3F)cc2C#N)CC1 [I-224]", "0.1 to 10 nM"],
  ["Nc1nc(F)c(-c2ccc(S(=O)(=O)C3CNC3)cc2)cc1-c1ccc2c(c1)CCNC2=O [I-84]", "11 to 100 nM"]
]}

Problem: Reported IC50 for Recombinant (1-346) HPK1 (h) (Homo sapiens, UniProt Q92918), given CC(C)N1CCN(c2ccc(-c3cc(-c4cc5cc[nH]c(=O)c5cn4)c(N)nc3F)cc2)CC1 [I-401] ?
Result: 0.1 to 10 nM

###

tgt: Lck (h) (Homo sapiens, UniProt P06239)
Sequence (P06239 whole entry): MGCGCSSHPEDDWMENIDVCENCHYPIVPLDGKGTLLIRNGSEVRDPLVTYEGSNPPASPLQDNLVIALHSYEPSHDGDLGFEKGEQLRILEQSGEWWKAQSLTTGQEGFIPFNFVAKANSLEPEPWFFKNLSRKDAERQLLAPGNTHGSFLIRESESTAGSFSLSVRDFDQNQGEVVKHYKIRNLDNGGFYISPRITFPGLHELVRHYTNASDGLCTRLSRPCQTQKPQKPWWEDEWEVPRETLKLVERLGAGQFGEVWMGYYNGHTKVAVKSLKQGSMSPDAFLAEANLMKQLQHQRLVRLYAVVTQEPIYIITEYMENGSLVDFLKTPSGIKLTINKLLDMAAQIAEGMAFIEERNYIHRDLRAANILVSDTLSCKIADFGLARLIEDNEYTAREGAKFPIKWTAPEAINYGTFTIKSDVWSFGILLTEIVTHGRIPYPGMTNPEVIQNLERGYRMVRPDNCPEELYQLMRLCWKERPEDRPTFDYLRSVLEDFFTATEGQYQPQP
protocol_notes: Lck Human  Kinase Enzymatic Radiometric Assay
Type: biochemical
protocol_conditions: ratio of Lck IC50 to HPK1 IC50
# binning rule on LcK IC50/HPK IC50 selectivity: category 1: < 80; category 2: ≥ 80 and < 1000; category 3: ≥ 1000

Known results for compounds:
{"columns": ["compound", "tgt", "assigned_category"],
 "data": [
  ["Nc1nc(F)c(-c2ccc(N3CCNCC3)c(C(F)(F)F)c2)cc1-c1ccc2c(c1)CCNC2=O [drawing 2685]", "Lck (h) (Homo sapiens, UniProt P06239)", "category 3"],
  ["Nc1nc(F)c(-c2cnn(C3CCOCC3)c2)cc1-c1ccc2c(c1)CCNC2=O [drawing 2675]", "Lck (h) (Homo sapiens, UniProt P06239)", "category 3"],
  ["Nc1ncc(-c2ccc(N3CCN4CCCC4C3)cc2)cc1-c1ccc2c(c1)CCNC2=O (stereo not shown) [reference compound]", "Lck (h) (Homo sapiens, UniProt P06239)", "category 1"],
  ["Nc1ncc(-c2ccc3c(c2)OCCCO3)cc1-c1ccc2c(c1)CCNC2=O [reference compound]", "Lck (h) (Homo sapiens, UniProt P06239)", "category 2"],
  ["Nc1ncc(-c2ccc(C3CCNCC3)cc2)cc1-c1cc2c(cc1F)C(=O)NCC2 [reference compound]", "Lck (h) (Homo sapiens, UniProt P06239)", "category 1"]
]}

Here is another compound to look at.
Problem: Please indicate the class for Nc1ncc(-c2ccc(N3CCCN4CCCC4C3)cc2)cc1-c1ccc2c(c1)CCNC2=O (stereo not shown) [reference compound] based on its LcK IC50/HPK IC50 selectivity.
Result: category 2

###

tgt: Lck (h) (Homo sapiens)
protocol_notes: Lck Human  Kinase Enzymatic Radiometric Assay
Assay type: biochemical
protocol_conditions: read-out: Lck IC50 nM Range* (number printed instead of a class)
measurement_label: IC50 (nM)
Give the value in nM but do not write nM after it.

Problem: Item CN1CCN(c2ccc(-c3cc(-c4cc5c(cc4F)C(=O)NCC5)c(N)nc3F)cc2C(F)(F)F)CC1 has what recorded IC50?
Result: 381

###

tgt: Lck (h) (Homo sapiens, UniProt P06239)
protocol_notes: Lck Human  Kinase Enzymatic Radiometric Assay
Type: biochemical
protocol_conditions: read-out: Lck IC50 nM Range*
measurement_label: IC50

The following molecules have reported results that may help.
{"columns": ["molecule", "IC50"],
 "data": [
  ["Nc1nc(F)c(-c2ccc(N3CCN(CC(F)F)CC3)cc2)cc1-c1cc2c(cc1F)C(=O)NCC2 [I-236]", "> 1000 nM"],
  ["CNCC1Cc2cc(-c3cc(-c4ccc(Cl)cc4)c(F)nc3N)ccc2C(=O)N1 (centres unmarked) [I-298]", "> 1000 nM"],
  ["CCN1CCOCC1c1ccc(-c2cc(-c3ccc4c(c3)CCNC4=O)c(N)nc2F)cc1 (centres unmarked) [I-131]", "> 1000 nM"],
  ["COc1cc(OC2CCNCC2)ccc1-c1cc(-c2ccc3c(c2)CCNC3=O)c(N)nc1F [I-150]", "> 1000 nM"],
  ["CN1CCN(c2ccc(-c3cc(-c4ccc5c(c4)CNC5=O)c(N)nc3F)cc2)CC1 [I-32]", "> 1000 nM"],
  ["Nc1nc(F)c(-c2ccc(N3CCN(CC4CC4)CC3)cc2)cc1-c1cc2c(cn1)C(=O)NCC2 [I-400]", "101 to 1000 nM"],
  ["COCCN1CCC(Oc2ccc(-c3cc(-c4ccc5c(c4)CCNC5=O)c(N)nc3F)cc2C#N)CC1 [I-217]", "> 1000 nM"],
  ["CN(CC1CC1)[C@@H]1CCN(c2ccc(-c3cc(-c4ccc5c(c4)CCNC5=O)c(N)nc3F)cc2)C1 [I-161]", "101 to 1000 nM"],
  ["COCCN1CCC(Oc2ccc(-c3cc(-c4ccc5c(c4)CCNC5=O)c(N)nc3F)cc2C(F)(F)F)CC1 [I-262]", "> 1000 nM"],
  ["CN(CC(F)(F)F)C1CCN(c2ccc(-c3cc(-c4ccc5c(c4)CCNC5=O)c(N)nc3F)cc2)C1 (centres unmarked) [I-159]", "> 1000 nM"]
]}

Problem: GET /values?readout=IC50&item= CC(=O)N1CCC(Oc2ccc(-c3cc(-c4cc5c(cc4F)C(=O)NCC5)c(N)nc3F)cc2)CC1 [I-327]
Result: > 1000 nM

Problem: What does the record list as IC50 for COc1cc(-c2cc(-c3ccc4c(c3)CCNC4=O)c(N)nc2F)ccc1OC1CCN(C(C)=O)CC1 [I-305] ?
Result: > 1000 nM

Problem: # query: IC50 of entry CN1CCN(c2ccc(-c3cc(-c4cc5c(cc4F)C(=O)NCC5)c(N)nc3F)c(Cl)c2)CC1 [I-252]
Result: > 1000 nM

Problem: Entry CC(C)N1CCc2cc(-c3cc(-c4ccc5c(c4)CCNC5=O)c(N)nc3F)ccc2C1 [I-328] has what IC50?
Result: > 1000 nM

Problem: Recorded IC50 for CC(C)N1CC=C(c2ccc(-c3cc(-c4ccc5c(c4)CCNC5=O)c(N)nc3F)cc2)CC1 [I-81] , please?
Result: > 1000 nM

Problem: Quick one: IC50 for Nc1nc(F)c(-c2ccc(N3CCN4CCCC4C3)cc2)cc1-c1ccc2c(c1)CCNC2=O (centres unmarked) [I-280] ?
Result: > 1000 nM

Problem: Looking for the measured IC50 of CN1CCN(C(=O)c2cccc(-c3cc(-c4ccc5c(c4)CCNC5=O)c(N)nc3F)c2)CC1 [I-331] , can you help?
Result: > 1000 nM
